Reference source: patent US20190307843A1

test-protocol: Pharmacokinetic profile in female rats, 10 mg/kg IV and SC
condition-label: rat, in vivo, SC, read-out: t½ (converted)
Starred links: 1 amine or outer side, 2 acyl side, 3 side chain; linkers in the order of their positions; H or OH if unused. Positions of bridges follow the written chain, without caps; N, C: chain ends. Non-standard residues stand in square brackets, D forms with d. Residues, ends and D or L forms follow the SMILES beside them. *: point of attachment. Orn(4R-OH,5R-OCH2CH2NMe3+) = C[N+](C)(C)CCO[C@@H](N[*:3])[C@H](O)C[C@H](N[*:1])C(=O)[*:2]; pTerphenylCO(4''-OnC5H11) = CCCCCOc1ccc(-c2ccc(-c3ccc(C(=O)*)cc3)cc2)cc1; hTyr(3S-OH,4S-OH) = N[C@H](C(=O)O)[C@H](O)[C@@H](O)c1ccc(O)cc1; Pro(3S-OH,4S-Me) = C[C@H]1CN[C@H](C(=O)O)[C@H]1O; Hyp = O=C(O)[C@@H]1C[C@@H](O)CN1
measured-metric: half-life (h)
Give a bare numeral; the unit h is implied.

Field half-life (entry CCCCCOc1ccc(-c2ccc(-c3ccc(C(=O)N[C@H]4C[C@@H](O)[C@@H](OCC[N+](C)(C)C)NC(=O)[C@@H]5[C@@H](O)[C@@H](C)CN5C(=O)[C@H]([C@@H](C)O)NC(=O)[C@H]([C@H](O)[C@@H](O)c5ccc(O)cc5)NC(=O)[C@@H]5C[C@@H](O)CN5C(=O)[C@H]([C@@H](C)O)NC4=O)cc3)cc2)cc1 [CD101] ({pTerphenylCO(4''-OnC5H11)}-[Orn(4R-OH,5R-OCH2CH2NMe3+)]T[Hyp][hTyr(3S-OH,4S-OH)]T[Pro(3S-OH,4S-Me)]; lactam 1-C) ) reads 48

----------
test-protocol: In vivo tissue distribution in SD rats after 5 mg/kg IV
condition-label: Sprague-Dawley, rat, liver, kidney, lung, spleen, read-out: tissue/plasma exposure ratios
Starred links: 1 amine or outer side, 2 acyl side, 3 side chain; linkers in the order of their positions; H or OH if unused. Positions of bridges follow the written chain, without caps; N, C: chain ends. Non-standard residues stand in square brackets, D forms with d. Residues, ends and D or L forms follow the SMILES beside them. *: point of attachment. Orn(4R-OH,5R-OCH2CH2NMe3+) = C[N+](C)(C)CCO[C@@H](N[*:3])[C@H](O)C[C@H](N[*:1])C(=O)[*:2]; pTerphenylCO(4''-OnC5H11) = CCCCCOc1ccc(-c2ccc(-c3ccc(C(=O)*)cc3)cc2)cc1; hTyr(3S-OH,4S-OH) = N[C@H](C(=O)O)[C@H](O)[C@@H](O)c1ccc(O)cc1; Pro(3S-OH,4S-Me) = C[C@H]1CN[C@H](C(=O)O)[C@H]1O; Hyp = O=C(O)[C@@H]1C[C@@H](O)CN1
measured-metric: Kp

Field Kp (entry CCCCCOc1ccc(-c2ccc(-c3ccc(C(=O)N[C@H]4C[C@@H](O)[C@@H](OCC[N+](C)(C)C)NC(=O)[C@@H]5[C@@H](O)[C@@H](C)CN5C(=O)[C@H]([C@@H](C)O)NC(=O)[C@H]([C@H](O)[C@@H](O)c5ccc(O)cc5)NC(=O)[C@@H]5C[C@@H](O)CN5C(=O)[C@H]([C@@H](C)O)NC4=O)cc3)cc2)cc1 [CD101] ({pTerphenylCO(4''-OnC5H11)}-[Orn(4R-OH,5R-OCH2CH2NMe3+)]T[Hyp][hTyr(3S-OH,4S-OH)]T[Pro(3S-OH,4S-Me)]; lactam 1-C) ) reads ~4

----------
test-protocol: Pharmacokinetics of CD101 after single 30 mg/kg SC (vs IV) dose in monkeys
Assay type: in vivo
condition-label: female, cynomolgus monkey, plasma; animal 9707, F; 30 mg/kg SC
Starred links: 1 amine or outer side, 2 acyl side, 3 side chain; linkers in the order of their positions; H or OH if unused. Positions of bridges follow the written chain, without caps; N, C: chain ends. Non-standard residues stand in square brackets, D forms with d. Residues, ends and D or L forms follow the SMILES beside them. *: point of attachment. Orn(4R-OH,5R-OCH2CH2NMe3+) = C[N+](C)(C)CCO[C@@H](N[*:3])[C@H](O)C[C@H](N[*:1])C(=O)[*:2]; pTerphenylCO(4''-OnC5H11) = CCCCCOc1ccc(-c2ccc(-c3ccc(C(=O)*)cc3)cc2)cc1; hTyr(3S-OH,4S-OH) = N[C@H](C(=O)O)[C@H](O)[C@@H](O)c1ccc(O)cc1; Pro(3S-OH,4S-Me) = C[C@H]1CN[C@H](C(=O)O)[C@H]1O; Hyp = O=C(O)[C@@H]1C[C@@H](O)CN1
measured-metric: Tmax (h)
Give a bare numeral; the unit h is implied.

Field Tmax (entry CCCCCOc1ccc(-c2ccc(-c3ccc(C(=O)N[C@H]4C[C@@H](O)[C@@H](OCC[N+](C)(C)C)NC(=O)[C@@H]5[C@@H](O)[C@@H](C)CN5C(=O)[C@H]([C@@H](C)O)NC(=O)[C@H]([C@H](O)[C@@H](O)c5ccc(O)cc5)NC(=O)[C@@H]5C[C@@H](O)CN5C(=O)[C@H]([C@@H](C)O)NC4=O)cc3)cc2)cc1 [CD101] ({pTerphenylCO(4''-OnC5H11)}-[Orn(4R-OH,5R-OCH2CH2NMe3+)]T[Hyp][hTyr(3S-OH,4S-OH)]T[Pro(3S-OH,4S-Me)]; lactam 1-C) ) reads 48

----------
Test system: Candida auris strains
test-protocol: Candida auris antifungal susceptibility testing (CLSI M27-A3), 38 strains
Type: cell-based
condition-label: Candidozyma auris, 24 h, strain 24 VCPI 250/P/14; 24 h; read-out: MIC
Starred links: 1 amine or outer side, 2 acyl side, 3 side chain; linkers in the order of their positions; H or OH if unused. Positions of bridges follow the written chain, without caps; N, C: chain ends. Non-standard residues stand in square brackets, D forms with d. Residues, ends and D or L forms follow the SMILES beside them. *: point of attachment. Orn(4R-OH,5R-OCH2CH2NMe3+) = C[N+](C)(C)CCO[C@@H](N[*:3])[C@H](O)C[C@H](N[*:1])C(=O)[*:2]; hTyr(3S-OH,4S-OH,3'-OSO3H) = N[C@H](C(=O)O)[C@H](O)[C@@H](O)c1ccc(O)c(OS(=O)(=O)O)c1; pTerphenylCO(4''-OnC5H11) = CCCCCOc1ccc(-c2ccc(-c3ccc(C(=O)*)cc3)cc2)cc1; Orn(4R-OH,5R-OH) = O=C([C@H](C[C@@H](O)[C@@H](O)N[*:3])N[*:1])[*:2]; hTyr(3S-OH,4S-OH) = N[C@H](C(=O)O)[C@H](O)[C@@H](O)c1ccc(O)cc1; Pro(3S-OH,4S-Me) = C[C@H]1CN[C@H](C(=O)O)[C@H]1O; X1 = CCCCCOc1ccc(-c2cc(-c3ccc(C(=O)*)cc3)no2)cc1; Gln(3R-OH) = NC(=O)C[C@@H](O)[C@H](N)C(=O)O; Hyp = O=C(O)[C@@H]1C[C@@H](O)CN1
measured-metric: MIC

Example entries begin here.
# compound, endpoint-result
data = [
    ("OC(Cn1cncn1)(Cn1cncn1)c1ccc(F)cc1F [fluconazole]", "64 µg/mL"),
    ("CCCCCOc1ccc(-c2ccc(-c3ccc(C(=O)N[C@H]4C[C@@H](O)[C@@H](OCC[N+](C)(C)C)NC(=O)[C@@H]5[C@@H](O)[C@@H](C)CN5C(=O)[C@H]([C@@H](C)O)NC(=O)[C@H]([C@H](O)[C@@H](O)c5ccc(O)cc5)NC(=O)[C@@H]5C[C@@H](O)CN5C(=O)[C@H]([C@@H](C)O)NC4=O)cc3)cc2)cc1 [CD101] ({pTerphenylCO(4''-OnC5H11)}-[Orn(4R-OH,5R-OCH2CH2NMe3+)]T[Hyp][hTyr(3S-OH,4S-OH)]T[Pro(3S-OH,4S-Me)]; lactam 1-C)", "0.25 µg/mL"),
    ("CCCCCOc1ccc(-c2cc(-c3ccc(C(=O)N[C@H]4C[C@@H](O)[C@@H](O)NC(=O)[C@@H]5[C@@H](O)[C@@H](C)CN5C(=O)[C@H]([C@H](O)CC(N)=O)NC(=O)[C@H]([C@H](O)[C@@H](O)c5ccc(O)c(OS(=O)(=O)O)c5)NC(=O)[C@@H]5C[C@@H](O)CN5C(=O)[C@H]([C@@H](C)O)NC4=O)cc3)no2)cc1 [Micafungin, micafungin] (X1-[Orn(4R-OH,5R-OH)]T[Hyp][hTyr(3S-OH,4S-OH,3'-OSO3H)][Gln(3R-OH)][Pro(3S-OH,4S-Me)]; lactam 1-C)", "0.125 µg/mL"),
]

// below: MIC requested for another compound
Here CC[C@H](C)C[C@H](C)CCCCCCCCC(=O)N[C@H]1C[C@@H](O)[C@@H](NCCN)NC(=O)[C@@H]2[C@@H](O)CCN2C(=O)[C@H]([C@H](O)CCN)NC(=O)[C@H]([C@H](O)[C@@H](O)c2ccc(O)cc2)NC(=O)[C@@H]2C[C@@H](O)CN2C(=O)[C@H]([C@@H](C)O)NC1=O [CAS, caspofungin] was tested on Candida auris strains, and its MIC came to 0.5 µg/mL
